The measurements presented in this section are drawn from PubChem BioAssay (NCI).

System: SK-MEL-2 melanoma
experiment.description: NCI tumour cell line growth inhibition, 48 h
measured.attribute: GI50

compound: C[C@@H](NC(=O)c1ccc(F)cc1)c1ccc2c(c1)CCN2C(=O)C1CCOCC1
GI50: > 100 µM

compound: COCCOCCOCCOCCOC(=O)OC[n+]1ccc(NC(=NCCCCCCOc2ccc(Cl)cc2)NC#N)cc1
GI50: 11.4 µM

compound: Fc1ccc2nc(-c3nc(-c4ccccc4)n4ccccc34)[nH]c2c1
GI50: 2.85 µM

compound: N#Cc1c(NC(=O)c2ccccc2F)sc2c1CCCC2
GI50: > 25 µM

compound: CC(=O)N(O)c1ccc(/C=C/c2ccccc2)cc1
GI50: 5.71 µM

compound: CN(C)CCCn1c2c(c3cc4c(cc3c1=O)OCO4)C(=O)c1ccccc1-2
GI50: 18.4 µM

Provide the reported GI50 of each entry below, same order.
1. COc1ccc(/C=N\Nc2nc(SCC(C)C)nc(-c3ccc(OC)cc3)c2C#N)cc1
2. CC(=O)[CH-]C(C)=O.CC(=O)[CH-]C(C)=O.CC(=O)[CH-]C(C)=O.[Ga+3]
3. C/C(=N\NC(=S)N1CCN(c2ccccn2)CC1)c1ncccn1

17.2 µM
> 100 µM
2.48 µM

Provide the reported GI50 of each entry below, same order.
1. N#Cc1cc2c(cc1Cl)Sc1nnc(Nc3cccc4ccccc34)n1S2(=O)=O
2. COc1c(OC(C)C)cc2cc(O)c(C(=O)NC3Cc4ccc(c(Cl)n4)O[C@@H]4C=C5C#C/C(=C\C#CC6OC56C4OC4CC(C)(O)C(O)C(C)O4)C(OC4CC(O)C(N(C)C)C(C)O4)COC3=O)cc2c1OC (some centres not stated)
3. CC(=O)OCC(CC[CH2][Sn]([Cl])([Cl])[c]1ccccc1)OC(C)=O (configuration not stated)
4. Cc1ccc(Cl)cc1-n1c(C)nc2c(cnn2-c2ccnc3c(C(F)(F)F)cccc23)c1=O
5. Nc1nc2ccccc2c2c1S(=O)(=O)c1ccc(Cl)cc1C2=O

17.3 µM
10 µg/mL
18.8 µM
> 100 µM
2.27 µM

Provide the reported GI50 of each entry below, same order.
1. COC(=O)c1cc([N+](=O)[O-])cc([N+](=O)[O-])c1Cl
2. CN1CCCC1c1cccnc1.O=C(O)c1ccccc1O.O=C([O-])c1ccccc1[OH2+].O=C([O-])c1ccccc1[OH2+].[Mn+2] (configuration not stated)
3. CCN(Cc1ccc(F)cc1)c1ccc(CO)c(C(F)(F)F)c1

3.52 µM
54.3 µM
15.1 µM

###

System: HCT-116 colon
experiment.description: NCI tumour cell line growth inhibition, 48 h; in the data active = GI50 below about 0.43 µM; inactive = the rest
Log the outcome using a class from true (active), false (inactive)

A selection of reference data follows.
compound: Clc1nc(Cl)c2ncn(CCOCCn3cnc4c(Cl)nc(Cl)nc43)c2n1
label.class: true
--
compound: N#Cc1cccc(Nc2ncc(-c3ccccc3)o2)c1
label.class: false

Test call for this compound, please: Nc1nc(-c2ccc(Cl)cc2)nc2c1sc(=S)n2-c1ccccc1
false

Same read-out for Fc1ccc2nc(-c3nc(-c4ccccc4)n4ccccc34)[nH]c2c1 ?
false

Same read-out for COc1ccc(/C=N\Nc2nc(SCC(C)C)nc(-c3ccc(OC)cc3)c2C#N)cc1 ?
false

###

Test system: MCF7 breast
experiment.description: NCI tumour cell line growth inhibition, 48 h
measured.attribute: TGI

Before answering, review these 3 worked examples.
molecule: Nc1ccc(-c2nc3ccc(F)cc3s2)cc1I
TGI: > 100 µM
//
molecule: O=C1c2ccccc2C(=O)c2c1cc1c(c2[N+](=O)[O-])OCO1
TGI: 7.29 µM
//
molecule: Fc1ccc2nc(-c3nc(-c4ccccc4)n4ccccc34)[nH]c2c1
TGI: 5.59 µM

Provide the reported TGI of each entry below, same order.
1. Cc1ccc(/N=N/C(=NNC(=O)c2ccc(C)cc2)c2ccc(N(C)C)cc2)cc1
2. COC(=O)[C@@]1(NC(=O)C(CC(=O)OC(C)(C)C)NC(=O)OC(C)(C)C)C[C@H]1C (stereo not given in full)
3. COc1cc(C(=O)/C=C/c2c(C(F)(F)F)nc3ccccn23)cc(OC)c1OC
4. S=C(NCc1ccc2c(c1)OCO2)N1CCN(c2ncnc3c2oc2ccccc23)CC1
5. N#C/C(=C\c1cc2ccc(N3CCC3)cc2oc1=O)C(=O)N(CC(=O)O)CC(=O)O

["46.2 µM", "> 100 µM", "6.41 µM", "> 100 µM", "> 100 µM"]
